Sourced from paper PMC12123727

Assay: Phase 1 plasma pharmacokinetics
Format: in vivo, human
Conditions: human, plasma, oral, 40 mg, AUC0-∞, Mean ± SD, abexinostat continuous administration (BID, 4-h interval) on C1D7, 40 mg (n = 4)
Measured Property: AUC(0-inf) (µg·h/mL)
Quick note: give the figure in µg·h/mL, leave out the unit.

Request: Suppose we examine the compound CN(C)Cc1c(C(=O)NCCOc2ccc(C(=O)NO)cc2)oc2ccccc12 ; what AUC(0-inf) value has been reported?
Response: 0.491

----------
Test: Phase 1 plasma pharmacokinetics
Assay type: in vivo, human
Conditions: human, plasma, oral, 60 mg, AUC0-∞, Mean ± SD, abexinostat continuous administration (BID, 4-h interval) on C1D7, 60 mg (n = 3)
Measured Property: AUC(0-inf) (ng·h/mL)
Quick note: give the figure in ng·h/mL, leave out the unit.

Request: Suppose we examine the compound CN(C)Cc1c(C(=O)NCCOc2ccc(C(=O)NO)cc2)oc2ccccc12 ; what AUC(0-inf) value has been reported?
Response: 656
